Test system: HOP-62 NSCLC
Assay: NCI tumour cell line growth inhibition, 48 h
VALUE_KIND: TGI

Take a look at these entries with their results.
- O=c1onc2c3ccccc3ncn12: > 100 µM
- CCOC(=O)C(=O)Nc1cc(Cl)ccc1Cl: > 100 µM
- Cc1ccc(/C=C2\CCCC(CN3CCCCC3)C2=O)cc1 (stereo not given): 35.4 µM
- COc1ccc2c(c1OC)C(=O)OC2C1c2c(c([N+](=O)[O-])c3c(c2OC)OCO3)CCN1C (stereo not given): > 100 µM

### Prompt Input O=C1NC(=O)C(c2cccc(Cl)c2)=C1Nc1ccc(O)c(Cl)c1 , output reported TGI.
### Response 24.3 µM

### Prompt For the molecule CC1OC(O[C@H]2/C=C/C=C/C=C/C=C/C=C/C=C/C=C/[C@H](C)[C@@H](O)[C@@H](C)[C@H](C)OC(=O)CC(O)CC(O)CCC(O)C(O)CC(O)C[C@]3(O)C[C@H](O)C(C(=O)O)C(C2)O3)C(O)[C@H](N)C1O (stereo not given in full) , report TGI.
### Response 3.11 µM

###

Tested on: HS 578T breast
Experiment: NCI tumour cell line growth inhibition, 48 h
TGI values for the molecules below.

• Cc1cc(NCCCCCCCNc2cc(C)nc3cc([N+](=O)[O-])ccc23)c2ccc([N+](=O)[O-])cc2n1 = 5.53 µM
• CSC(=S)N/N=C(\C)c1cccc(C)n1 = > 89 µM
• O=c1onc2c3ccccc3ncn12 = > 100 µM
• COC1O[C@@H]2C[C@H]3C(C)(C)CCC[C@]3(C)C3=CCCC1[C@@]32C (stereo partly specified) = > 100 µM
• CC1(O)OC(=O)C2=C1CCC1C2CCC2(C)C(O)CCC12 (stereo unspecified) = > 100 µM

### Prompt Supply TGI measured with HS 578T breast for O=C(CSC1=NCCN1)Nc1ccccc1 .
### Response 65.9 µM

###

System: CAKI-1 renal
Experiment: NCI tumour cell line growth inhibition, 48 h
VALUE_KIND: TGI

Solved entries (count: 2):
• CC[C@@H](/C=C\CCC(=O)C[C@H](O)CCC=C(C)C)O[Si](C(C)C)(C(C)C)C(C)C = > 100 µM
• CC1=NN(C(=O)CSc2nc3ccc(I)cc3c(=O)n2Cc2ccccc2)C(=O)C1 = > 100 µM

In the following, a different compound is considered.
### Prompt Consider the compound CC1(C)CCC[C@]2(C)[C@@H](C=O)C(C=O)=CC[C@@H]12 . State its measured TGI.
### Response 23.1 µM

###

Tested on: SK-MEL-28 melanoma
Experiment: NCI tumour cell line growth inhibition, 48 h; in the data active = GI50 below about 0.43 µM; inactive = the rest
Log the outcome using a class from true for active, false for inactive

The examples below pair each entry with its known result.
* CCC1(O)C(=O)OCc2c1cc1n(c2=O)Cc2cc3cc(N)ccc3nc2-1 (centres undefined) | false
* CC1OC(O[C@H]2/C=C/C=C/C=C/C=C/C=C/C=C/C=C/[C@H](C)[C@@H](O)[C@@H](C)[C@H](C)OC(=O)CC(O)CC(O)CCC(O)C(O)CC(O)C[C@]3(O)C[C@H](O)C(C(=O)O)C(C2)O3)C(O)[C@H](N)C1O (some centres undefined) | false
* N#CN1CC[C@H](C(=O)Nc2ncc(-c3ccncc3)s2)C1 | true

Consider the additional compound presented here.
### Prompt Assay outcome for Cn1cc(-c2nonc2-c2cn(C)c3ccccc23)c2ccccc21 : what was it?
### Response false

###

Tested on: UACC-257 melanoma
Experiment: NCI tumour cell line growth inhibition, 48 h
List of TGI values.

* COc1ccc(/C=C2\CN(C)C/C(=C\c3ccc(OC)c(OC)c3OC)C2=O)c(OC)c1OC | 0.571 µM
* CC(=O)Oc1ccccc1C(=O)/C=C/c1cccc([N+](=O)[O-])c1 | 20.8 µM
* COc1nc(N)c(N=CC(OC(C)=O)C(OC(C)=O)C(COC(C)=O)OC(C)=O)c(=O)n1C (configuration not stated) | > 100 µM
* COc1ccc(OC)c(C2SCC(=O)N2NC(=O)C(O)c2ccccc2)c1 (configuration not stated) | > 100 µM
* O=C1NC(=O)C(c2cccc(Cl)c2)=C1Nc1ccc(O)c(Cl)c1 | > 25 µM
* CC1(C)C2CCC13CS(=O)(=O)N1O[C@]13C(=O)O2 (some centres not stated) | > 100 µM

// below: TGI requested for another compound
### Prompt For CCOC(=O)[C@H](Cc1ccc(O)cc1)N=C1[C@H]2CCC[C@]1(O)[C@@](C)([N+](=O)[O-])C2 , write its TGI.
### Response > 100 µM

###

System: HOP-92 NSCLC
Assay: NCI tumour cell line growth inhibition, 48 h
VALUE_KIND: TGI (µM)
State the answer as a number, implicitly in µM.

* CN(CCCNC(=O)c1nn(-c2ccc(Cl)cc2Cl)c2c1Cc1ccccc1-2)CCCNC(=O)c1nn(-c2ccc(Cl)cc2Cl)c2c1Cc1ccccc1-2 | 3.06

### Prompt Identify measured TGI associated with COc1ccc(OC)c(Cn2cc3c(c2)-c2oncc2CC3)c1
### Response 57.8

### Prompt Consider the compound O=C(Nc1cccc(Nc2ncc(Br)c(NCCc3cnc[nH]3)n2)c1)N1CCCC1 and give its recorded TGI.
### Response 7.93

### Prompt Supply measured TGI of CC(=O)c1c(C(F)(F)F)n([O-])c2ccc(C)cc2[n+]1=O in your reply.
### Response 4.81

### Prompt Provide TGI value for the following compound: COC(=O)c1nc(-c2ccccc2)oc1S(=O)(=O)n1nc(C)cc1N
### Response 3.89

### Prompt State, in one line, measured TGI of O=C(CSC1=NCCN1)Nc1ccccc1
### Response 91

### Prompt Please indicate TGI recorded for CCN1C(=O)N(CC)C2C1NN=c1s/c(=C3\C(=O)N(CCc4ccccc4)c4ccccc43)c(=O)n12 (stereo not given)
### Response 15.6

### Prompt Indicate the recorded TGI value for this compound: O=[N+]([O-])c1cc(S(=O)(=O)Oc2ccccc2)ccc1Cl
### Response 3.39

### Prompt Report measured TGI; entry is COC(=O)c1c(O)ccc2c1C1(Cc3ccccc3C1=O)C(O)O2 (stereo not given)
### Response 60.2

###

Reported TGI by item:
System: SF-268 CNS
Test: NCI tumour cell line growth inhibition, 48 h

Known TGI results, listed for orientation:
• CC1OC(OC2C(OC(=O)[C@@H]3CC(C)(C)C[C@H]4C5=CC[C@@H]6[C@@]7(C)C[C@H](O)[C@H](OC8OC(CO)C(O)C(O)C8O)[C@@](C)(CO)[C@@H]7[C@H](O)C[C@@]6(C)[C@]5(C)CC[C@@]34C)OCC(O)C2O)C(O)C(O)C1O (some centres undefined) = > 7.5 µM
• C[C@@H]1O[C@@H](OC[C@H]2O[C@@H](OCCc3ccc(O)c(O)c3)[C@H](O)[C@@H](O)[C@@H]2OC(=O)/C=C/c2ccc(O)c(O)c2)[C@H](O)[C@H](O)[C@H]1O = > 100 µM
• COC(=O)c1c(O)ccc2c1C1(Cc3ccccc3C1=O)C(O)O2 (centres undefined) = 51.6 µM
• CCCCCCCCCCCCCP(=O)(O)NCC(N)=O = > 100 µM
• O=C(O)/C(Cl)=C(\Cl)C(=O)Nc1ccc(Cl)c(Cl)c1Cl = 42.8 µM

### Prompt Name the recorded TGI of the item O=C(Cc1ccccc1)NN1C(=O)C(Cl)C1c1ccccc1O (centres undefined) in your answer.
### Response > 100 µM

### Prompt Given the compound CCNC1=C(NC(=O)CC)C(=O)c2ccccc2C1=O , write its reported TGI.
### Response > 100 µM

### Prompt Read the entry COc1cc(C(c2ccc3c(c2)OCO3)N2C(=O)CCC2C(=O)O)cc(OC)c1OC (centres undefined) and write its reported TGI.
### Response > 100 µM

### Prompt Complete the entry with TGI for CC1(C)N=C(N)N=C(N)N1c1ccc(CCCCc2ccc(S(=O)(=O)F)cc2)c(Cl)c1
### Response 19.5 µM

###

System: BT-549 breast
Experiment: NCI tumour cell line growth inhibition, 48 h; in the data active = GI50 below about 0.43 µM; inactive = the rest
Hello, when you answer, please use one of the following outcomes: active, inactive

For orientation, consider the following solved cases.
• COc1ccc(OC)c(C2SCC(=O)N2NC(=O)C(O)c2ccccc2)c1 (configuration not stated) = inactive
• Cc1nc2ccccc2c(/C=C/c2ccc(Br)cc2)c1C(=O)/C=C/c1ccccc1 = inactive
• COc1ccc(/C=N/NC(=O)Cn2c(-c3ccc(S(C)(=O)=O)cc3)nc3cc(Cl)ccc32)cc1 = inactive
• CC1OC(O[C@H]2/C=C/C=C/C=C/C=C/C=C/C=C/C=C/[C@H](C)[C@@H](O)[C@@H](C)[C@H](C)OC(=O)CC(O)CC(O)CCC(O)C(O)CC(O)C[C@]3(O)C[C@H](O)C(C(=O)O)C(C2)O3)C(O)[C@H](N)C1O (some centres not stated) = inactive
• Cc1c(C2=C(c3cn(C)c4ccccc34)C(=O)NC2=O)c2ccccc2n1C = inactive

Consider the additional compound presented here.
### Prompt Called result for CC(C)(C)CN1CCn2c(nc3c(N)nccc32)S1
### Response inactive
